# assay_method_text: Inhibition of guinea pig liver TG2 using Z-Gln-Gly/DMPDA as substrate preincubated for 3 mins followed by protein addition
# Design: species or system Cavia porcellus
Peptide text beside a SMILES is read from it. * marks the point of attachment. Cbz = O=C(OCc1ccccc1)*; Acryloyl = C=CC(=O)*
value_kind: Ki (nM)
Give bare numbers, in nM.

Example results:
| compound | Ki (nM) |
| --- | --- |
| C=CC(=O)NCCCC[C@H](NC(=O)OCc1ccccc1)C(=O)NCC(=O)O (Cbz-Lys(Acryloyl)-Gly-OH) | 150 |
| C=CC(=O)NCCCC[C@H](NC(=O)OCc1ccccc1)C(=O)O | 520 |

Kindly review the next compound as well.
Param item = C=CC(=O)NCCCC[C@H](NC(=O)OCc1ccccc1)C(=O)NCCOCCOCCNS(=O)(=O)c1cccc2c(N(C)C)cccc12 ; retrieve measured Ki.
29000

----------
Assignment: determine reported pKi for the given compounds.
# target_desc: Protein-glutamine gamma-glutamyltransferase (Homo sapiens, UniProt P21980)
# assay_method_text: Irreversible inhibition of human TG2 using AL5 as substrate by double reciprocal plot method
Answers are plain numbers, as −log10 of the molar value.

| structure_smiles | pKi |
| --- | --- |
| C=CC(=O)NCCC[C@H](NC(=O)OCc1ccccc1)C(=O)N1CCN(S(=O)(=O)c2cccc3c(N(C)C)cccc23)CC1 | 4.32 |
| C=CC(=O)NCCCC[C@H](NC(=O)OCc1ccccc1)C(=O)NCCCCNS(=O)(=O)c1cccc2c(N(C)C)cccc12 | 4.57 |
| C=CC(=O)NCCCC[C@H](NC(=O)OCc1ccccc1)C(=O)NCCCNS(=O)(=O)c1cccc2c(N(C)C)cccc12 | 4.52 |

I would be grateful if you could provide pKi for each of the following entries.
1. C=CC(=O)NCCCC[C@H](NC(=O)OCc1ccccc1)C(=O)NCCNS(=O)(=O)c1cccc2c(N(C)C)cccc12
2. C=CC(=O)NCCCC[C@H](NC(=O)OCc1ccccc1)C(N)=O

1. 4.63
2. 4.45

----------
# target_desc: UniProtKB P21980
# assay_method_text: Irreversible inhibition of human TG2 using AL5 as substrate by colorimetric assay
value_kind: log10 of Kinact (log10 of the value in min⁻¹)
Answers are given as log10 of Kinact in min⁻¹.

| structure_smiles | target_desc | log10 of Kinact |
| --- | --- | --- |
| C=CC(=O)NCCCC[C@H](NC(=O)OCc1ccccc1)C(=O)N1CCN(S(=O)(=O)CC)CC1 | UniProtKB P21980 | 0.15 |
| C=CC(=O)NCCCC[C@H](NC(=O)OCc1ccccc1)C(=O)N1CCN(C(=O)c2cccnc2)CC1 | UniProtKB P21980 | 0.16 |
| C=CC(=O)NCCCC[C@H](NC(=O)OCc1ccccc1)C(=O)N1CCN(S(=O)(=O)C(C)C)CC1 | UniProtKB P21980 | -0.30 |
| C=CC(=O)NCCCC[C@H](NC(=O)OCc1ccccc1)C(=O)N1CCN(C(=O)c2cc3ccc(O)cc3oc2=O)CC1 | UniProtKB P21980 | -0.16 |
| C=CC(=O)NCCCC[C@H](NC(=O)OCc1ccccc1)C(=O)N1CCN(S(=O)(=O)c2cccc3ccccc23)CC1 | UniProtKB P21980 | -0.41 |

I would be grateful if you could provide log10 of Kinact for each of the following entries.
1. C=CC(=O)NCCCC[C@H](NC(=O)OCc1ccccc1)C(=O)N1CCN(S(=O)(=O)Cc2ccccc2)CC1
2. C=CC(=O)NCCCC[C@H](NC(=O)OCc1ccccc1)C(=O)N1CCN(C(=O)Cc2ccccc2)CC1
3. C=CC(=O)NCCCC[C@H](NC(=O)OCc1ccccc1)C(=O)N1CCN(C(=O)c2ccccc2)CC1

[-0.33, 0.35, 0.68]

----------
# target_desc: Protein-glutamine gamma-glutamyltransferase (Homo sapiens) (UniProt P21980)
# Sequence (whole entry): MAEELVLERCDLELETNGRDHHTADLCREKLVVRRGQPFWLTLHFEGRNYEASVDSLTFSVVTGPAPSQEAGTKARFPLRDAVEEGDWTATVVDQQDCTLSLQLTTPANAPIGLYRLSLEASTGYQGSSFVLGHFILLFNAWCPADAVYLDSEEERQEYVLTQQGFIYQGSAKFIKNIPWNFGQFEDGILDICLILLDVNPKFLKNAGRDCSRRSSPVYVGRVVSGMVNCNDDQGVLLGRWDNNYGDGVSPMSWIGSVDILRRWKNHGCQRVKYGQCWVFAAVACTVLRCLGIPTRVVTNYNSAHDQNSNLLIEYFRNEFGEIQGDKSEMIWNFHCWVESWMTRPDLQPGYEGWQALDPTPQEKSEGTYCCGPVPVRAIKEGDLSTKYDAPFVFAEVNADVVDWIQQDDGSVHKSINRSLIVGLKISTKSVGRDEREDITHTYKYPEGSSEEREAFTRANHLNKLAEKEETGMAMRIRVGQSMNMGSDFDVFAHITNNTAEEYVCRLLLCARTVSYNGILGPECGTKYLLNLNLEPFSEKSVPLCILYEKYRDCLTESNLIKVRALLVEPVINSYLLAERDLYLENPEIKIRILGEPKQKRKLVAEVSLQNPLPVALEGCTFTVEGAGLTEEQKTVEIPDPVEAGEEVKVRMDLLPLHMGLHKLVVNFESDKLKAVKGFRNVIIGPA
# assay_method_text: Ratio of kinact to Ki for human TG2 by colorimetric assay
Peptide text beside a SMILES is read from it. * marks the point of attachment. Cbz = O=C(OCc1ccccc1)*; Acryloyl = C=CC(=O)*
Assignment: determine reported Ratio for the given molecules.
One number for each entry, in ×10³ /M/min.

Example results:
| molecule | Ratio [×10³ /M/min] |
| --- | --- |
| C=CC(=O)NCCCC[C@H](NC(=O)OCc1ccccc1)C(=O)N1CCN(S(=O)(=O)c2ccc3ccccc3c2)CC1 | 57.3 |
| C=CC(=O)NCCCC[C@H](NC(=O)OCc1ccccc1)C(=O)N1CCN(S(=O)(=O)c2cccc3ccccc23)CC1 | 37.2 |
| C=CC(=O)NCCCC[C@H](NC(=O)OCc1ccccc1)C(=O)N1CCN(C(=O)c2cc3ccc(O)cc3oc2=O)CC1 | 62.1 |
| C=CC(=O)NCCCC[C@H](NC(=O)OCc1ccccc1)C(=O)NCCOCCOCCNS(=O)(=O)c1cccc2c(N(C)C)cccc12 | 76.4 |
| C=CC(=O)NCCCC[C@H](NC(=O)OCc1ccccc1)C(=O)N1CCN(S(=O)(=O)C2CCCCC2)CC1 | 62.9 |

I would be grateful if you could provide Ratio for each of the following entries.
1. C=CC(=O)NCCCC[C@H](NC(=O)OCc1ccccc1)C(=O)N1CCN(C(=O)c2cccnc2)CC1
2. C=CC(=O)NCCCC[C@H](NC(=O)OCc1ccccc1)C(=O)N1CCN(S(=O)(=O)c2ccccc2)CC1
3. C=CC(=O)NCCCC[C@H](NC(=O)OCc1ccccc1)C(=O)NCC(=O)O (Cbz-Lys(Acryloyl)-Gly-OH)
4. C=CC(=O)NCCCC[C@H](NC(=O)OCc1ccccc1)C(=O)N1CCN(c2ccccc2Cl)CC1

1. 61.4
2. 53.3
3. 26.1
4. 56

I would be grateful if you could provide Ratio for each of the following entries.
1. C=CC(=O)NCCCC[C@H](NC(=O)OCc1ccccc1)C(=O)N1CCN(C(C)=O)CC1
2. C=CC(=O)NCCCC[C@H](NC(=O)OCc1ccccc1)C(=O)N1CCN(C(=O)c2ccc3ccccc3c2)CC1
3. C=CC(=O)NCCCC[C@H](NC(=O)OCc1ccccc1)C(=O)N1CCN(S(=O)(=O)Cc2ccccc2)CC1
4. C=CC(=O)NCCCC[C@H](NC(=O)OCc1ccccc1)C(=O)N1CCOCC1
5. C=CC(=O)NCCCC[C@H](NC(=O)OCc1ccccc1)C(=O)N1CCN(C(=O)c2ccccc2)CC1
6. C=CC(=O)NCCCC[C@H](NC(=O)OCc1ccccc1)C(=O)N1CCN(C(=O)c2ccncc2)CC1
7. C=CC(=O)NCCCC[C@H](NC(=O)OCc1ccccc1)C(=O)N1CCN(S(C)(=O)=O)CC1
8. C=CC(=O)NCCCC[C@H](NC(=O)OCc1ccccc1)C(=O)N1CCN(S(=O)(=O)C(C)C)CC1

1. 36.9
2. 90.3
3. 34.9
4. 51
5. 130
6. 37
7. 78.4
8. 54.7

----------
# target_desc: Protein-glutamine gamma-glutamyltransferase (Homo sapiens)
# assay_method_text: Ratio of kinact to Ki for human TG2 by colorimetric assay
Peptide text beside a SMILES is read from it. * marks the point of attachment. Cbz = O=C(OCc1ccccc1)*; Acryloyl = C=CC(=O)*
Assignment: determine reported Ratio for the given compounds.
Answers are plain numbers, in ×10³ /M/min.

| compound | target_desc | experimental_result |
| --- | --- | --- |
| C=CC(=O)NCCCC[C@H](NC(=O)OCc1ccccc1)C(=O)N1CCN(C(=O)Cc2ccccc2)CC1 | Protein-glutamine gamma-glutamyltransferase (Homo sapiens) | 113 |
| C=CC(=O)NCCCC[C@H](NC(=O)OCc1ccccc1)C(=O)NCC(=O)OC (Cbz-Lys(Acryloyl)-Gly-OMe) | Protein-glutamine gamma-glutamyltransferase (Homo sapiens) | 36.2 |
| C=CC(=O)NCCCC[C@H](NC(=O)OCc1ccccc1)C(=O)N1CCN(S(=O)(=O)CC)CC1 | Protein-glutamine gamma-glutamyltransferase (Homo sapiens) | 39.4 |
| C=CC(=O)NCCCC[C@H](NC(=O)OCc1ccccc1)C(=O)N1CCN(C(=O)c2ccccn2)CC1 | Protein-glutamine gamma-glutamyltransferase (Homo sapiens) | 91.3 |

Kindly review the next compound as well.
Param item = C=CC(=O)NCCCC[C@H](NC(=O)OCc1ccccc1)C(=O)N1CCN(S(=O)(=O)c2cccs2)CC1 ; retrieve measured Ratio.
36.8
